Provenance of the data: patent US11252960B2

System: Candida albicans (ATCC 10231)
ASSAY_PROTOCOL: Anti-fungal Minimum Inhibitory Concentration (MIC) Method, microbroth dilution
Assay type: cell-based
ASSAY_CONDITIONS: Table 4; RPMI-1640, 25° C., 48 hours, pH 4.5-adjusted stock
ENDPOINT: MIC (%) C. albicans
Numbers only, in %.

// below: answered compounds
>>> print(df.to_string())
                                   compound             endpoint  readout_number
0  CCC(O)COC(=O)c1ccccc1 (centres unmarked) [Compound 12, Benzoic acid 2-hydroxy-butyl ester]  MIC (%) C. albicans          0.1175
1  O=C(OCCO)c1ccccc1 [Compound 8, Benzoic acid 2-hydroxyethyl ester]  MIC (%) C. albicans           0.475
2  O=C(OCCCO)c1ccccc1 [Compound 11, Benzoic acid 3-hydroxy-propyl ester]  MIC (%) C. albicans           0.136

Continue with the next compound.
Name the recorded MIC (%) C. albicans of the item O=C(OCCCCO)c1ccccc1 [Compound 10, Benzoic acid 4-hydroxy-butyl ester] in your answer.
0.115
